Values from paper PMC4187121

# Target: tryptophanase (Escherichia coli)
# Construct: purchased Sigma-Aldrich Co. (St. Louis, MO, USA)
# Protocol description: L-tryptophan degradation by tryptophanase, kinetic and inhibition analysis (indole formation, Ehrlich reagent)
# Format: biochemical, E. coli
# Measurement parameters: inhibitor of L-tryptophan degradation, DAP 1.2 M; read-out: Inhibition const. Ki
pKi: −log10 of the molar value.
Readout type: pKi

1. N[C@H](Cc1c[nH]c2ccccc12)C(=O)O 1.52

====

# Target: tryptophanase (Escherichia coli, UniProt P0A853)
# Construct: purchased Sigma-Aldrich Co. (St. Louis, MO, USA)
# Sequence (P0A853 whole entry): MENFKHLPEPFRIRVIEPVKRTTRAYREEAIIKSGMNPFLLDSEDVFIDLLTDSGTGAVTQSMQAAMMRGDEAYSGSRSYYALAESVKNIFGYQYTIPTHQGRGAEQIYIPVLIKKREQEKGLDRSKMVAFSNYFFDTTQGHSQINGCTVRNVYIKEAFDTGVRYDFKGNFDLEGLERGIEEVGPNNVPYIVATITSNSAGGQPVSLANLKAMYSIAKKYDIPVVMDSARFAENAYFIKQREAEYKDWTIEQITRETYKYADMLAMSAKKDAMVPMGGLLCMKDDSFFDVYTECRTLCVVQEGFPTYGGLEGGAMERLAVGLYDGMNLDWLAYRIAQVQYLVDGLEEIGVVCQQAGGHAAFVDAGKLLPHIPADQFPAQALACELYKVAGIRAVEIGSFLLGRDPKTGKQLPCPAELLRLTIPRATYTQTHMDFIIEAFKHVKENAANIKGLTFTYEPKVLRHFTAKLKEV
# Protocol description: D-tryptophan degradation by tryptophanase in the presence of 3.1 M DAP, kinetic and inhibition analysis
# Assay type: biochemical, E. coli
# Measurement parameters: inhibitor of D-tryptophan degradation, 3.1 M DAP
pKi: −log10 of the molar value.
Readout type: pKi

1) N[C@H](Cc1c[nH]cn1)C(=O)O 3.40

====

# Target: tryptophanase (Escherichia coli, UniProt P0A853)
# Construct: purchased Sigma-Aldrich Co. (St. Louis, MO, USA)
# Protocol description: L-tryptophan degradation by tryptophanase, kinetic and inhibition analysis (indole formation, Ehrlich reagent)
# Assay type: biochemical, E. coli
# Measurement parameters: inhibitor of L-tryptophan degradation, DAP 1.9 M; read-out: Inhibition const. Ki
Readout type: Ki (mM)

1) N[C@H](Cc1c[nH]c2ccccc12)C(=O)O 38

====

Examples of molecules with documented pKi follow.
# Target: tryptophanase (Escherichia coli, UniProt P0A853)
# Construct: purchased Sigma-Aldrich Co. (St. Louis, MO, USA)
# Protocol description: L-tryptophan degradation by tryptophanase, kinetic and inhibition analysis (indole formation, Ehrlich reagent)
# Assay type: biochemical, E. coli
# Measurement parameters: substrate L-Trp, DAP 0 M (Table 2); read-out: Inhibition const. Ki
pKi: −log10 of the molar value.
Readout type: pKi

Molecule	Recorded measurement
O=C(O)C(=O)Cc1c[nH]c2ccccc12 [indole pyruvate]	3.70
CC(=O)C(=O)O [potassium pyruvate]	2.52

====

# Target: tryptophanase (Escherichia coli, UniProt P0A853)
# Construct: purchased Sigma-Aldrich Co. (St. Louis, MO, USA)
# Protocol description: L-tryptophan degradation by tryptophanase, kinetic and inhibition analysis (indole formation, Ehrlich reagent)
# Type: biochemical, E. coli
# Measurement parameters: substrate L-Trp, DAP 0.6 M (Table 2); read-out: Inhibition const. Ki
pKi: −log10 of the molar value.

Compound	Target	pKi
O=C(O)C(=O)Cc1c[nH]c2ccccc12 [indole pyruvate]	tryptophanase (Escherichia coli, UniProt P0A853)	3.70
